tested on: SK-OV-3 ovarian; assay: NCI tumour cell line growth inhibition, 48 h
Measurement label: TGI

The cases that follow already have their TGI on record.
- COc1ccc(CCN2CCN(CCCc3ccccc3)CC2)cc1: > 100 µM
- O=c1cc(-c2ccc(F)cc2)[nH]c2ncccc12: > 100 µM
- COc1cc(-n2ccnc2-c2ccc3ccccc3c2)cc(OC)c1OC: 24.7 µM
- CC1OC(OC2C(O)COC(OC3C(C)OC(OC4C(OC(=O)[C@]56CCC(C)(C)C[C@@H]5C5=CCC7[C@@]8(C)C[C@H](O)[C@H](OC9OC(CO)C(O)C(O)C9O)[C@@](C)(CO)[C@@H]8CC[C@@]7(C)[C@]5(C)CC6)OCC(O)C4O)C(O)C3O)C2O)C(O)C(O)C1O (stereo partly drawn): 37.8 µM

Hi team, please reply with TGI for each item in this list.
1. CCOC(=O)c1c(O)cn2c1[nH]c1cccc3cccc2c31
2. CN(O)C(=O)CCC(NC(=O)CCC(N)C(=O)O)C(=O)NCC(=O)O (stereo not drawn)

1: > 100 µM; 2: > 100 µM

Hi team, please reply with TGI for each item in this list.
1. CC#Cc1c(O)c2c(c(O)c1C#CC)C(=O)c1ccccc1C2=O
2. CCOC(=O)C(=Cc1ccc(C#N)cc1)C(=O)OCC

["> 100 µM", "21.5 µM"]

Provenance of the data: PubChem BioAssay (NCI)
